Biological target: Disintegrin and metalloproteinase domain-containing protein 17 (Homo sapiens)
Sequence (P78536 whole entry, the tested form may be a part): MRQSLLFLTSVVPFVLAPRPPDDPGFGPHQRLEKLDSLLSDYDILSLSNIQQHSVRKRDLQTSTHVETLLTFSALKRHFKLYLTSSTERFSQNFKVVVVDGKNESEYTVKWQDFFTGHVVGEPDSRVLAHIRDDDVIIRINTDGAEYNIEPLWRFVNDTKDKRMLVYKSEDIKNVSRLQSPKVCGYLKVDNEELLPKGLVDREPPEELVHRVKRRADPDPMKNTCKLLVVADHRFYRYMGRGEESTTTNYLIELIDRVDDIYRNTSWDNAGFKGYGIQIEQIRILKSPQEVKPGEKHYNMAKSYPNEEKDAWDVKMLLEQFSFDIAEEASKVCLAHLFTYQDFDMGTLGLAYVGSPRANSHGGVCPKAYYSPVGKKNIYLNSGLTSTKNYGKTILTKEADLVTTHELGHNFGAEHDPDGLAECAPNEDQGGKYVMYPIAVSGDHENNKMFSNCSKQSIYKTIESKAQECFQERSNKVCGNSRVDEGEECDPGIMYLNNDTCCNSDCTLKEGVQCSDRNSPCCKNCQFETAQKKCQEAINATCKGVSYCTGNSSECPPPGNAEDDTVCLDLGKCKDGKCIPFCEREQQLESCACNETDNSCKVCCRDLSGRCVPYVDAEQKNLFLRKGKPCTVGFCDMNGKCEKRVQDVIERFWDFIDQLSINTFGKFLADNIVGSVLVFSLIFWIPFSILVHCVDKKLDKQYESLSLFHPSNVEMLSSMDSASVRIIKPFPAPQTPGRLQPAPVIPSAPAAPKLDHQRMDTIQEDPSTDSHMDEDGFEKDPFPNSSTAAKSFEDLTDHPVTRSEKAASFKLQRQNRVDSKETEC
Assay: Inhibition of TACE
Details: read-out: Ki
MEASUREMENT NAME: pKi
Expect pKi as a plain number equal to -log10 of the molar concentration.

pKi in this record for O=C(NCCc1cccs1)[C@H](O)[C@@H](O)C(=O)N1CCCC1c1ccccc1 (some centres undefined) : 7.02

pKi in this record for "O=C(NCCc1cccs1)[C@H](O)[C@@H](O)C(=O)N1Cc2ccccc2C1" : 7.18

pKi in this record for O=C(NCc1ccc(Cc2ccccc2)cc1)[C@H](O)[C@@H](O)C(=O)N1CCCC1c1cccc(Cl)c1 (some centres undefined) : 7.15

Then this compound:
pKi in this record for O=C(NCCc1cccs1)[C@H](O)[C@@H](O)C(=O)N1CCCC1c1nccs1 (some centres undefined) : 6.79
